System: 997537-175-T-J1-PDC complex spheroid viability
Assay: Anticancer human tumor 997537-175-T-J1-PDC patient-derived colon adenocarcinoma cell line growth inhibition [GQUAD]
Conditions: second compound 0.1 µM; first compound 0.00316 µM; active compounds read low
Text: DNA G-quadruplex Stabilizer Agents in Combinations in Complex Spheroids A high-throughput screen of multi-cell type tumor spheroids was designed to identify active combinations of DNA G-quadruplex stabilizer agents and targeted small molecules. […] Compounds. […] If the clinical Cmax for an agent had not been determined, the highest concentration tested was 10 microM. […]
Experimental endpoint: viability, T/C (%)

[[record]]
compound = "CC[C@@]1(O)C(=O)OCc2c1cc1n(c2=O)Cc2cc3c(CN(C)C)c(O)ccc3nc2-1 + CN(C)c1ccc(Nc2c3ccc(NC(=O)CCN4CCCC4)cc3nc3cc(NC(=O)CCN4CCCC4)ccc23)cc1"
measured_on = "997537-175-T-J1-PDC complex spheroid viability"
observed = 103

[[record]]
compound = "Cc1[nH]c2ccccc2c1CCNCc1ccc(/C=C/C(=O)NO)cc1 + Cc1[nH]c2ccc(F)cc2c1-c1nc2c3cccnc3c3ncccc3c2[nH]1"
measured_on = "997537-175-T-J1-PDC complex spheroid viability"
observed = 108

[[record]]
compound = "Cn1ncnc1[C@H]1c2n[nH]c(=O)c3cc(F)cc(c23)N[C@@H]1c1ccc(F)cc1 + CN(C)c1ccc(Nc2c3ccc(NC(=O)CCN4CCCC4)cc3nc3cc(NC(=O)CCN4CCCC4)ccc23)cc1"
measured_on = "997537-175-T-J1-PDC complex spheroid viability"
observed = 97


----------
Tested on: 997537-175-T-J1-PDC complex spheroid viability
Assay: Anticancer human tumor 997537-175-T-J1-PDC cell line growth inhibition [GQUAD];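 note: spheroids exposed to the agents for 7 days; 100% = DMSO vehicle control viability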
Details: second compound 3.16 µM; first compound 0.0316 µM; active compounds read low
Text: DNA G-quadruplex Stabilizer Agents in Combinations in Complex Spheroids A high-throughput screen of multi-cell type tumor spheroids was designed to identify active combinations of DNA G-quadruplex stabilizer agents and targeted small molecules. […] Compounds. […] If the clinical Cmax for an agent had not been determined, the highest concentration tested was 10 microM. […]
Experimental endpoint: viability, T/C (%)

[[record]]
compound = "COc1cc(C2c3cc4c(cc3C(OC3OC5COC(C)OC5C(O)C3O)C3COC(=O)C23)OCO4)cc(OC)c1O (stereo unspecified) + CN(C)c1ccc(Nc2c3ccc(NC(=O)CCN4CCCC4)cc3nc3cc(NC(=O)CCN4CCCC4)ccc23)cc1"
measured_on = "997537-175-T-J1-PDC complex spheroid viability"
observed = 78.7

[[record]]
compound = "CC1COCCN1c1cc(C2(O)CC3CCC(C2)O3)c2cnn(-c3ccn[nH]3)c2n1 (stereo unspecified) + Cc1cnc(CNC(=O)c2c(=O)c3ccc(N4CCCN(C)CC4)nc3n3c2sc2ccccc23)cn1"
measured_on = "997537-175-T-J1-PDC complex spheroid viability"
observed = 48.6

[[record]]
compound = "COc1ccc([C@@H](O)c2cc(-c3ncnc4cc(N5CCOCC5)ccc34)c(F)cc2Cl)nn1 + Cc1[nH]c2ccc(F)cc2c1-c1nc2c3cccnc3c3ncccc3c2[nH]1"
measured_on = "997537-175-T-J1-PDC complex spheroid viability"
observed = 72.4

[[record]]
compound = "CC[C@@]1(O)C(=O)OCc2c1cc1n(c2=O)Cc2cc3c(CN(C)C)c(O)ccc3nc2-1 + Cc1cnc(CNC(=O)c2c(=O)c3ccc(N4CCCN(C)CC4)nc3n3c2sc2ccccc23)cn1"
measured_on = "997537-175-T-J1-PDC complex spheroid viability"
observed = 89.7

[[record]]
compound = "Cn1ncnc1[C@H]1c2n[nH]c(=O)c3cc(F)cc(c23)N[C@@H]1c1ccc(F)cc1 + Cc1cnc(CNC(=O)c2c(=O)c3ccc(N4CCCN(C)CC4)nc3n3c2sc2ccccc23)cn1"
measured_on = "997537-175-T-J1-PDC complex spheroid viability"
observed = 100

[[record]]
compound = "COc1cccc2c1C(=O)c1c(O)c3c(c(O)c1C2=O)CC(O)(C(=O)CO)CC3OC1CC(N)C(O)C(C)O1 (stereo unspecified) + CN(C)c1ccc(Nc2c3ccc(NC(=O)CCN4CCCC4)cc3nc3cc(NC(=O)CCN4CCCC4)ccc23)cc1"
measured_on = "997537-175-T-J1-PDC complex spheroid viability"
observed = 74.8

[[record]]
compound = "CCCS(=O)(=O)Nc1ccc(F)c(C(=O)c2c[nH]c3ncc(-c4ccc(Cl)cc4)cc23)c1F + Cc1[nH]c2ccc(F)cc2c1-c1nc2c3cccnc3c3ncccc3c2[nH]1"
measured_on = "997537-175-T-J1-PDC complex spheroid viability"
observed = 86

[[record]]
compound = "CC1COCCN1c1cc(C2(S(C)(=N)=O)CC2)nc(-c2ccnc3[nH]ccc23)n1 (stereo unspecified) + Cc1cnc(CNC(=O)c2c(=O)c3ccc(N4CCCN(C)CC4)nc3n3c2sc2ccccc23)cn1"
measured_on = "997537-175-T-J1-PDC complex spheroid viability"
observed = 65.4

[[record]]
compound = "C=CC(=O)N1CCN(c2nc(=O)n(-c3c(C)ccnc3C(C)C)c3nc(-c4c(O)cccc4F)c(F)cc23)C(C)C1 (stereo unspecified) + Cc1cnc(CNC(=O)c2c(=O)c3ccc(N4CCCN(C)CC4)nc3n3c2sc2ccccc23)cn1"
measured_on = "997537-175-T-J1-PDC complex spheroid viability"
observed = 68.9

[[record]]
compound = "Nc1ccn(C2OC(CO)C(O)C2(F)F)c(=O)n1 (stereo unspecified) + Cc1[nH]c2ccc(F)cc2c1-c1nc2c3cccnc3c3ncccc3c2[nH]1"
measured_on = "997537-175-T-J1-PDC complex spheroid viability"
observed = 77.4

[[record]]
compound = "CC[C@@]1(O)C(=O)OCc2c1cc1n(c2=O)Cc2cc3c(CN(C)C)c(O)ccc3nc2-1 + CN(C)c1ccc(Nc2c3ccc(NC(=O)CCN4CCCC4)cc3nc3cc(NC(=O)CCN4CCCC4)ccc23)cc1"
measured_on = "997537-175-T-J1-PDC complex spheroid viability"
observed = 86.4


----------
test system: 997537-175-T-J1-PDC complex spheroid viability; assay: Anticancer human tumor 997537-175-T-J1-PDC cell line growth inhibition [GQUAD]; conditions: second compound 1 µM; first compound 3.16 µM; active compounds read low;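 note: spheroids exposed to the agents for 7 days; 100% = DMSO vehicle control viability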
Listing of entries alongside the reported viability, T/C.
Experimental endpoint: viability, T/C (%)

[[record]]
compound = "COc1ncnc(C2CC2)c1-c1ncc2cnn(Cc3ccc(-c4nc(C(F)(F)F)cn4C(C)C)cc3)c2n1 + CN(C)c1ccc(Nc2c3ccc(NC(=O)CCN4CCCC4)cc3nc3cc(NC(=O)CCN4CCCC4)ccc23)cc1"
experimental_endpoint = "viability, T/C"
observed = 85.7

[[record]]
compound = "CC1COCCN1c1cc(-c2ccnn2C)c2ccnc(-c3ccn[nH]3)c2n1 (stereo not given) + Cc1cnc(CNC(=O)c2c(=O)c3ccc(N4CCCN(C)CC4)nc3n3c2sc2ccccc23)cn1"
experimental_endpoint = "viability, T/C"
observed = 58.2

[[record]]
compound = "CC1COCCN1c1cc(-c2ccnn2C)c2ccnc(-c3ccn[nH]3)c2n1 (stereo not given) + CN(C)c1ccc(Nc2c3ccc(NC(=O)CCN4CCCC4)cc3nc3cc(NC(=O)CCN4CCCC4)ccc23)cc1"
experimental_endpoint = "viability, T/C"
observed = 68.8

[[record]]
compound = "C=CCn1c(=O)c2cnc(Nc3ccc(N4CCN(C)CC4)cc3)nc2n1-c1cccc(C(C)(C)O)n1 + CN(C)c1ccc(Nc2c3ccc(NC(=O)CCN4CCCC4)cc3nc3cc(NC(=O)CCN4CCCC4)ccc23)cc1"
experimental_endpoint = "viability, T/C"
observed = 47.5

[[record]]
compound = "COc1cccc2c1C(=O)c1c(O)c3c(c(O)c1C2=O)CC(O)(C(=O)CO)CC3OC1CC(N)C(O)C(C)O1 (stereo not given) + CN(C)c1ccc(Nc2c3ccc(NC(=O)CCN4CCCC4)cc3nc3cc(NC(=O)CCN4CCCC4)ccc23)cc1"
experimental_endpoint = "viability, T/C"
observed = 97


----------
test system: 997537-175-T-J1-PDC complex spheroid viability; experiment: Anticancer human tumor 997537-175-T-J1-PDC cell line growth inhibition [GQUAD]; conditions: second compound 0.0316 µM; first compound 1 µM; active compounds read low;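 note: spheroids exposed to the agents for 7 days; 100% = DMSO vehicle control viability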
// classify(record): look up viability, T/C in ranges group A: < 60%; group B: ≥ 60% and < 80%; group C: ≥ 80%

[[record]]
compound = "CC1COCCN1c1cc(C2(S(C)(=N)=O)CC2)nc(-c2ccnc3[nH]ccc23)n1 (centres undefined) + Cc1cnc(CNC(=O)c2c(=O)c3ccc(N4CCCN(C)CC4)nc3n3c2sc2ccccc23)cn1"
assigned_class = "group A"

[[record]]
compound = "CC(=O)O[C@H]1C(=O)[C@@]2(C)[C@H]([C@H](OC(=O)c3ccccc3)[C@]3(O)C[C@H](OC(=O)[C@H](O)[C@@H](NC(=O)c4ccccc4)c4ccccc4)C(C)=C1C3(C)C)[C@]1(OC(C)=O)CO[C@@H]1C[C@@H]2O + CN(C)c1ccc(Nc2c3ccc(NC(=O)CCN4CCCC4)cc3nc3cc(NC(=O)CCN4CCCC4)ccc23)cc1"
assigned_class = "group A"

[[record]]
compound = "C=CC(=O)N1CCN(c2nc(=O)n(-c3c(C)ccnc3C(C)C)c3nc(-c4c(O)cccc4F)c(F)cc23)C(C)C1 (centres undefined) + CN(C)c1ccc(Nc2c3ccc(NC(=O)CCN4CCCC4)cc3nc3cc(NC(=O)CCN4CCCC4)ccc23)cc1"
assigned_class = "group B"

[[record]]
compound = "COc1ccc([C@@H](O)c2cc(-c3ncnc4cc(N5CCOCC5)ccc34)c(F)cc2Cl)nn1 + CN(C)c1ccc(Nc2c3ccc(NC(=O)CCN4CCCC4)cc3nc3cc(NC(=O)CCN4CCCC4)ccc23)cc1"
assigned_class = "group B"

[[record]]
compound = "CC(C)n1c(=O)n(C)c2cnc3cc(F)c(-c4ccc(OCCCN5CCCCC5)nc4)cc3c21 + Cc1[nH]c2ccc(F)cc2c1-c1nc2c3cccnc3c3ncccc3c2[nH]1"
assigned_class = "group C"

[[record]]
compound = "COc1cccc2c1C(=O)c1c(O)c3c(c(O)c1C2=O)CC(O)(C(=O)CO)CC3OC1CC(N)C(O)C(C)O1 (centres undefined) + Cc1[nH]c2ccc(F)cc2c1-c1nc2c3cccnc3c3ncccc3c2[nH]1"
assigned_class = "group C"

[[record]]
compound = "CC(C)(O)C1CCC(Nc2ccc3ncc(-c4cccc(C(F)(F)F)c4)n3n2)CC1 (centres undefined) + Cc1cnc(CNC(=O)c2c(=O)c3ccc(N4CCCN(C)CC4)nc3n3c2sc2ccccc23)cn1"
assigned_class = "group A"

[[record]]
compound = "CC(=O)O[C@H]1C(=O)[C@@]2(C)[C@H]([C@H](OC(=O)c3ccccc3)[C@]3(O)C[C@H](OC(=O)[C@H](O)[C@@H](NC(=O)c4ccccc4)c4ccccc4)C(C)=C1C3(C)C)[C@]1(OC(C)=O)CO[C@@H]1C[C@@H]2O + Cc1cnc(CNC(=O)c2c(=O)c3ccc(N4CCCN(C)CC4)nc3n3c2sc2ccccc23)cn1"
assigned_class = "group A"

[[record]]
compound = "COc1ncnc(C2CC2)c1-c1ncc2cnn(Cc3ccc(-c4nc(C(F)(F)F)cn4C(C)C)cc3)c2n1 + Cc1[nH]c2ccc(F)cc2c1-c1nc2c3cccnc3c3ncccc3c2[nH]1"
assigned_class = "group C"

[[record]]
compound = "COc1ccc([C@@H](O)c2cc(-c3ncnc4cc(N5CCOCC5)ccc34)c(F)cc2Cl)nn1 + Cc1cnc(CNC(=O)c2c(=O)c3ccc(N4CCCN(C)CC4)nc3n3c2sc2ccccc23)cn1"
assigned_class = "group B"

[[record]]
compound = "O=c1[nH]cc(F)c(=O)[nH]1 + CN(C)c1ccc(Nc2c3ccc(NC(=O)CCN4CCCC4)cc3nc3cc(NC(=O)CCN4CCCC4)ccc23)cc1"
assigned_class = "group B"

[[record]]
compound = "CC1COCCN1c1cc(C2(O)CC3CCC(C2)O3)c2cnn(-c3ccn[nH]3)c2n1 (centres undefined) + CN(C)c1ccc(Nc2c3ccc(NC(=O)CCN4CCCC4)cc3nc3cc(NC(=O)CCN4CCCC4)ccc23)cc1"
assigned_class = "group A"

[[record]]
compound = "COc1cccc2c1C(=O)c1c(O)c3c(c(O)c1C2=O)CC(O)(C(=O)CO)CC3OC1CC(N)C(O)C(C)O1 (centres undefined) + CN(C)c1ccc(Nc2c3ccc(NC(=O)CCN4CCCC4)cc3nc3cc(NC(=O)CCN4CCCC4)ccc23)cc1"
assigned_class = "group C"

[[record]]
compound = "CC(=O)O[C@H]1C(=O)[C@@]2(C)[C@H]([C@H](OC(=O)c3ccccc3)[C@]3(O)C[C@H](OC(=O)[C@H](O)[C@@H](NC(=O)c4ccccc4)c4ccccc4)C(C)=C1C3(C)C)[C@]1(OC(C)=O)CO[C@@H]1C[C@@H]2O + Cc1[nH]c2ccc(F)cc2c1-c1nc2c3cccnc3c3ncccc3c2[nH]1"
assigned_class = "group C"

[[record]]
compound = "CC1COCCN1c1cc(-c2ccnn2C)c2ccnc(-c3ccn[nH]3)c2n1 (centres undefined) + Cc1[nH]c2ccc(F)cc2c1-c1nc2c3cccnc3c3ncccc3c2[nH]1"
assigned_class = "group A"

[[record]]
compound = "O=c1[nH]cc(F)c(=O)[nH]1 + Cc1[nH]c2ccc(F)cc2c1-c1nc2c3cccnc3c3ncccc3c2[nH]1"
assigned_class = "group C"

[[record]]
compound = "C#Cc1c(F)ccc2cc(O)cc(-c3ncc4c(N5CC6CCC(C5)N6)nc(OCC56CCCN5CC(F)C6)nc4c3F)c12 (centres undefined) + Cc1cnc(CNC(=O)c2c(=O)c3ccc(N4CCCN(C)CC4)nc3n3c2sc2ccccc23)cn1"
assigned_class = "group B"

